- Tested on: Escherichia coli
- protocol.details: Antibacterial activity against extended spectrum beta-lactamase producing Escherichia coli 12-15 after 18 hrs by broth microdilution method
- Assay type: functional, organism-based
- condition.label: 12-15, 18 h, read-out: IC50
readout.label: MIC

// solved cases for MIC follow
> print(dat)
                            compound.string  endpoint.result
1  CCCc1cc(O)cc2c1Oc1c(Cl)c(O)c(Cl)c(CCC)c1C(=O)O2         > 256 µM
2  C[C@H]1COc2c(N3CCN(C)CC3)c(F)cc3c(=O)c(C(=O)O)cn1c23            32 µM
3  CCCc1cc(O)cc2c1Oc1c(Cl)c(O)cc(CCC)c1C(=O)O2         > 256 µM
4  CCCc1c(Cl)c(OC)c(Cl)c2c1Oc1c(Cl)c(O)c(Cl)c(CCC)c1C(=O)O2         > 256 µM
5  CCCc1c(Cl)c(O)c(Cl)c2c1Oc1c(Cl)c(O)c(Cl)c(CCC)c1C(=O)O2         > 256 µM

Provide MIC value for the following compound: CCCc1cc(O)c(Cl)c2c1Oc1c(Cl)c(O)c(Cl)c(CCC)c1C(=O)O2
64 µM

Provide MIC value for the following compound: CCCc1c(Cl)c(OC)cc2c1Oc1c(Cl)c(O)c(Cl)c(CCC)c1C(=O)O2
> 256 µM

Provide MIC value for the following compound: CCCc1c(Cl)c(O)cc2c1Oc1c(Cl)c(O)c(Cl)c(CCC)c1C(=O)O2
> 256 µM

* * *

- System: Staphylococcus epidermidis
- protocol.details: Antibacterial activity against methicillin-resistant Staphylococcus epidermidis 12-8 after 18 hrs by broth microdilution method
- Type: functional, organism-based
- condition.label: 12-8, 18 h, read-out: IC50
# MIC values compiled below
Report the value in µM with no unit label.

// solved cases for MIC follow
> print(dat)
                            compound.string  readout.label  endpoint.result
1  CCCc1cc(O)cc2c1Oc1c(Cl)c(O)c(Cl)c(CCC)c1C(=O)O2            MIC               64
2  C[C@H]1COc2c(N3CCN(C)CC3)c(F)cc3c(=O)c(C(=O)O)cn1c23            MIC                4
3  CCCc1cc(O)cc2c1Oc1c(Cl)c(O)cc(CCC)c1C(=O)O2            MIC               32
4  CCCc1c(Cl)c(OC)cc2c1Oc1c(Cl)c(O)c(Cl)c(CCC)c1C(=O)O2            MIC                2
5  CCCc1c(Cl)c(O)cc2c1Oc1c(Cl)c(O)c(Cl)c(CCC)c1C(=O)O2            MIC                4
6  CCCc1c(Cl)c(O)c(Cl)c2c1Oc1c(Cl)c(O)c(Cl)c(CCC)c1C(=O)O2            MIC                8
7  CCCc1c(Cl)c(OC)c(Cl)c2c1Oc1c(Cl)c(O)c(Cl)c(CCC)c1C(=O)O2            MIC                1

Field: next compound
Provide MIC value for the following compound: CCCc1cc(O)c(Cl)c2c1Oc1c(Cl)c(O)c(Cl)c(CCC)c1C(=O)O2
4
